measured_on: Amine oxidase [flavin-containing] B (Homo sapiens)
Sequence (P27338 whole entry): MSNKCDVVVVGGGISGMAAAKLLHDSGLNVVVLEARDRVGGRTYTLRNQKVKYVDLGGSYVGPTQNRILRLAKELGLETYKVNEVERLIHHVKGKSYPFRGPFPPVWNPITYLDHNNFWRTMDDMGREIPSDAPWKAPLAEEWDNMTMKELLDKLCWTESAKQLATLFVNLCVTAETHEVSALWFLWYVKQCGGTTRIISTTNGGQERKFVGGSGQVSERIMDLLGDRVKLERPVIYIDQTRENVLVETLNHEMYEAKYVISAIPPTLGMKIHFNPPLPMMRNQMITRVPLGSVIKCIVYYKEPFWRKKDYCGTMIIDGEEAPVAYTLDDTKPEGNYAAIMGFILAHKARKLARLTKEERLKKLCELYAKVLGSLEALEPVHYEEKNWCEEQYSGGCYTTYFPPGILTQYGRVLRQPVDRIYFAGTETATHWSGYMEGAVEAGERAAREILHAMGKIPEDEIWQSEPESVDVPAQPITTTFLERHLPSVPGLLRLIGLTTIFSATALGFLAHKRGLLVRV
assay_info: Inhibition of recombinant human MAOB expressed in baculovirus infected insect cell microsomes using kynuramine as substrate assessed as formation of 4-hydroxyquinoline after 20 mins by fluorescence spectrophotometry
Hi there, I'd appreciate the recorded pIC50 for every entry that follows.
One number for each entry, as −log10 of the molar value.

Cn1c(=O)c2c(nc(OCCOCc3ccccc3)n2C)n(C)c1=O    5.42
Cn1c(=O)c2c(nc(OCCOc3ccccc3)n2C)n(C)c1=O    6.42
Cn1c(=O)c2c(nc(OCC3CCCCC3)n2C)n(C)c1=O    5.86
Cn1c(=O)c2c(nc(OCCCc3ccccc3)n2C)n(C)c1=O    6.21
Cn1c(=O)c2c(nc(OCCOc3ccc(Br)cc3)n2C)n(C)c1=O    6.78

Please look at the following compound next.
**Query** Any idea what its pIC50 is? The compound is Cn1c(=O)c2c(nc(OCCc3ccccc3)n2C)n(C)c1=O
**Result** 5.53
